Quick note: these are pIC50 numbers for system: Thrombin (human FIIa) (Homo sapiens, UniProt P00734)
pIC50: −log10 of the molar value.

O=C(Nc1cc(C(=O)Nc2ccc(S(=O)(=O)O)cc2)cc(C(=O)Nc2ccc(S(=O)(=O)O)cc2)c1)Nc1cc(C(=O)Nc2ccc(S(=O)(=O)O)cc2)cc(C(=O)Nc2ccc(S(=O)(=O)O)cc2)c1 : < 4.00

So what pIC50 did Cc1ccc(C(=O)Nc2ccc(CP(=O)(O)O)cc2CP(=O)(O)O)cc1NC(=O)c1cccc(NC(=O)Nc2cccc(C(=O)Nc3cc(C(=O)Nc4ccc(CP(=O)(O)O)cc4CP(=O)(O)O)ccc3C)c2)c1 get with Thrombin (human FIIa) (Homo sapiens, UniProt P00734)?
< 3.30
